System: Human alphaherpesvirus 1
MEASUREMENT_DESCRIPTION: Antiviral activity against HSV1 infected in human KB cells assessed as inhibition of virus-induced cytopathic effect after 72 hrs relative to control
Assay type: functional, organism-based
Calls of active or inactive are those of the source. The rule behind the calls is not given here.
READOUT_LABEL: Activity

Use the examples below as a reference point.
Data request: Please supply the value of reported Activity for the item Nc1cc2c(ncn2[C@@H]2O[C@H](COP(=O)(O)O)[C@@H](O)[C@H]2O)c(=O)[nH]1
Data returned: Active

Data request: Please supply the value of reported Activity for the item N#CCc1c(C(N)=O)ncn1[C@@H]1O[C@H](CO)[C@@H](O)[C@H]1O
Data returned: Active

Data request: Please supply the value of reported Activity for the item C[C@H]1O[C@@H](n2cnc3c(=O)[nH]c(N)cc32)[C@H](O)[C@@H]1O
Data returned: Active

Data request: Please supply the value of reported Activity for the item Nc1cc2ncn(C3CCCCO3)c2c(=O)[nH]1 (stereo not given)
Data returned: Active

More entries:
Data request: Please supply the value of reported Activity for the item Nc1cc2[nH]cnc2c(=O)[nH]1 [DEZAGUANINE]
Data returned: Active
